All figures here come from patent US20230203146A1.

molecular target: FLAG tagged human Ang2 (Alexis Biochemicals) (human) (UniProt O15123); assay: competition ELISA, periplasmic extract, FLAG-hAng2 on hTie2/Fc
Sequence (O15123 19-496): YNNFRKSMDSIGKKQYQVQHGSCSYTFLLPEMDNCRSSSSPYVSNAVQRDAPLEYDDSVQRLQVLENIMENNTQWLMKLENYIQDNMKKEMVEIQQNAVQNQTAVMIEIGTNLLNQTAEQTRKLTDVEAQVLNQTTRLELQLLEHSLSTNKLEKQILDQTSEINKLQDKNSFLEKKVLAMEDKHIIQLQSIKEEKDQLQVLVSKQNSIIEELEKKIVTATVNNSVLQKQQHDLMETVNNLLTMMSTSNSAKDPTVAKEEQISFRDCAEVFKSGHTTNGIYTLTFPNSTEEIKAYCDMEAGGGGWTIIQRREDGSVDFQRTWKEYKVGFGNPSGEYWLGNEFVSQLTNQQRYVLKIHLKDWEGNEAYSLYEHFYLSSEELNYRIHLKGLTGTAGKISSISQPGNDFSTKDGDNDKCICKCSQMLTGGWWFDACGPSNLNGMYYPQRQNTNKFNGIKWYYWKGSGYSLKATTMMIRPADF
Measured Metric: % inh (%)
A number alone suffices; assume %.

Lookup: Entry VHH 29B08 (VHH, not shown: small tags and cut ends) VHH: EVQLVESGGGVVQAGDSVRLSCAASGPTFRSYTMAWFRQTPGKERDIVAAISSSLGRTYYADSVKGRFQILRDNAKETVWLQMNSLKPEDTAVYICAASRSLNLAYTTKPYDYWGQGTQVTVSS : reported % inh = ?
Found: 112

Lookup: Entry VHH 13A02 (VHH, not shown: small tags and cut ends) VHH: EVQLVESGGGLVQAGGSLRLSCAASGGTFSSYSMGWFRQAPGKEREFIAAINWNGDSTYYEDSVKGRFTVSRDNAKNTVYLQMNSLKPEDTAVYYCAATGWGRAYEQAYEYDVWGQGTQVTVSS : reported % inh = ?
Found: 96

Lookup: Entry VHH 12A08 (VHH, not shown: small tags and cut ends) VHH: EVQLVESGRGLVQAGGSLRLSCAASGSIFSINAMLWYRQAPGKQRELVAAITSGGSTNYADSVKGRFTISRDNAKNTVYLQMNSLKPEDTAVYYCAADSDYSSDYYYWGQGTQVTVSS : reported % inh = ?
Found: 0

Lookup: Entry VHH 19A03 (VHH, not shown: small tags and cut ends) VHH: EVQLVESGGGLVQAGGSLRLSCAASGFTFDDYAIAWFRQAPGKEREGISCITPSDDRTYYADSVKGRFIISSDNAKNTVYLQMNSLKPEDTADYYCAAVPRLRGLGYWPYPEYEYDYWGQGTQVTVSS : reported % inh = ?
Found: 74

Lookup: Entry VHH 2G01 (VHH, not shown: small tags and cut ends) VHH: EVQLVESGGGLVQAGGSLRLSCAASGRTISSYAMAWFRQAPGKEREFVAAISLSGDSTYYADSVKGRFTISRDNAKNTVYLQMNSLKPEDTAEYYCAATDWDFEDIPEYYCSGYGCDESLFDSWGQGTQVTVSS : reported % inh = ?
Found: 39

Lookup: Entry VHH 22C07 (VHH, not shown: small tags and cut ends) VHH: EVQLVESGGGLVQAGGSLRLSCAASGFTFDDYAIGWFRQAPGKEREGVSCISSSDGSTYYADSVKGRFTISSDNAKNTVYLQMNSLKPEDTAVYYCAADFIISSKRLCLDLFGSRGQGTQVTVSS : reported % inh = ?
Found: 78

Lookup: Entry VHH 25D08 (VHH, not shown: small tags and cut ends) VHH: EVQLVESGGGLVQAGGSLRLSCAASGFTFDDYAIGWFRQAPGKDLEGVSCISSSDGSTYYADSVKGRFTISSDNAKNTVYLQMNSLKPEDTAVYYCAAVNGLGPFSVPVPVYDFWGQGTQVTVSS : reported % inh = ?
Found: 94

Lookup: Entry VHH 25B01 (VHH, not shown: small tags and cut ends) VHH: EVQLVESGGGLVQAGGSLRLSCAASGFTFDDYAIGWFRQAPGKEREGVSCISSSDGSTYYADSVKGRFTISSDNAKNTVYLQMNSLKPEDTAVYYCAAAWGASRLPIGTMPPYEYDYWGQGTQVTVSS : reported % inh = ?
Found: 5

Lookup: Entry VHH 15A06 (VHH, not shown: small tags and cut ends) VHH: EVQLVESGGGLVQAGGSLRLSCAASGRTFSSYAMGWFRQAPGKEREFVARISWNGGSTYHADSVKGRFTISRDNPKNTVYLQMDSLKPEDAAIYYCAASIALVGGVTPHSYDYWGQGTQVTVSS : reported % inh = ?
Found: 0

Lookup: Entry VHH 10A03 (VHH, not shown: small tags and cut ends) VHH: EVQLVESGGGSVQAGGSLRLSCAASERTFSPYAMGWFRQAPGKEREFVAHITWSAGSTYYADSVKGRFTISRDNAKNTVYLQMNSLKPEDTAVYYCAAKRRYGIVDRDYNDWGQGTQVTVSS : reported % inh = ?
Found: 0

Lookup: Entry VHH 23C10 (VHH, not shown: small tags and cut ends) VHH: EVQLVESGGGLVQPGGSLRLSCAASGFALDYYAIGWFRQAPGKEREGVSCISSSDGSTYYADSVKGRFTISRDNAKNTVYLQMNSLKPEDTAVYYCATDSLGYGSSCRMAPYEYDYWGQGTQVTVSS : reported % inh = ?
Found: 37

Lookup: Entry VHH 28D10 (VHH, not shown: small tags and cut ends) VHH: EVQLVESGGGLVQAGGSLRLSCAASGFTLDDYAIGWFRQAPGKEREGVSCIRDSDGSTYYADSVKGRFTISSDNDKNTVYLQMNSLKPEDTAVYYCAAVPAGRLRFGEQWYPLYEYDAWGQGTQVTVSS : reported % inh = ?
Found: 118

Lookup: Entry VHH 25F01 (VHH, not shown: small tags and cut ends) VHH: EVQLVESGGGLVQAGGSLRLSCAVSGLPFDDYVIGWFRQAPGKEREGVSCISSSDGSTYYADSVKGRFTISSDNAKNTVYLQMNSLKPEDTAAYYCAAGGPRINIATMTCSHDEYEYDYWGQGTQVTVSS : reported % inh = ?
Found: 85

Lookup: Entry VHH 22G11 (VHH, not shown: small tags and cut ends) VHH: EVQLVESGGGLVQAGGSLRLSCAVSGFTFDDYAIGWFRQAPGKEREGVSCISRSDGSPYYADSVKGRFTISSDNAKGTVYLQMSSLKPEDTAVYYCAASWSGAYYSGTYYCDRLYEYDAWGQGTQVTVSS : reported % inh = ?
Found: 100

Lookup: Entry VHH 32H10 (VHH, not shown: small tags and cut ends) VHH: EVQLVESGGGLVQAGGSLRLSCAASGFDFEDYDMGWFRQAPGKEREGVSYISSSDGSTYYTDSVKGRFTISSDNAKNTVYLQMNSLIPEDTAVYYCAARPWTRRVYGSSWLARSLDEYEYDYWGQGTQVTVSS : reported % inh = ?
Found: 112
